Data origin, for the record: patent US6858638B2

Target: human KDR enzyme (Homo sapiens, UniProt P35968)
Construct: The cytoplasmic domain of the human KDR enzyme; GST; made in house; host or cells: SF21 insect cells (baculovirus)
Sequence (P35968 786-1356 limits assumed): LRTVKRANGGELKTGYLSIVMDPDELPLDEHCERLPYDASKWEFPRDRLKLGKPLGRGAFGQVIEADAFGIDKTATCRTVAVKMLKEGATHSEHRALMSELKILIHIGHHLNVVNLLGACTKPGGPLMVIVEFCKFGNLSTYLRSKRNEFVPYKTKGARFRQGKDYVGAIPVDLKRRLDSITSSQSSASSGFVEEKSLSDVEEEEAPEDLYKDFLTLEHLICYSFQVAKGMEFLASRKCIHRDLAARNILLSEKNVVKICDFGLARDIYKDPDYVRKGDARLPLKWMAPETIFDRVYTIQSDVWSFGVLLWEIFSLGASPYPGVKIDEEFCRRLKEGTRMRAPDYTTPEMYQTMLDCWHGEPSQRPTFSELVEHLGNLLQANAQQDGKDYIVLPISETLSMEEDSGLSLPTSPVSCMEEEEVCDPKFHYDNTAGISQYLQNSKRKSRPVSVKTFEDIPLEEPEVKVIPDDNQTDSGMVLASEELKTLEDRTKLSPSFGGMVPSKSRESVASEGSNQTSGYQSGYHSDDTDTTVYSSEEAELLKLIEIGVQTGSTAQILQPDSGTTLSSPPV
Assay: KDR substrate (PLCγ) phosphorylation, scintillation assay
Format: biochemical
Settings: 10 μM; read-out: KDR % inhib at 10 μM
Record form. Attribute: inhibition at 10 µM. Fill in for each entry.
Answers are plain numbers, in %.

Sample answers from the record:
CS(=O)(=O)c1ccccc1S(=O)(=O)Nc1ccc2[nH]nc(-c3ccc(Cl)c(Cl)c3)c2c1 | 42
Cc1ccccc1S(=O)(=O)Nc1ccc2[nH]nc(-c3ccccc3)c2c1 | 96
O=S(=O)(Nc1ccc2[nH]nc(-c3ccccc3)c2c1)c1ccc(Br)cc1 | 81
O=S(=O)(Nc1ccc2[nH]nc(-c3ccccc3)c2c1)c1cccc(-c2ccccc2)c1 | 63
Cc1ccc(-c2n[nH]c3ccc(NS(=O)(=O)c4ccccc4S(C)(=O)=O)cc23)cc1 | 71
CC(C)S(=O)(=O)Nc1ccc2[nH]nc(-c3ccccc3)c2c1 | 62

// for each compound in input: emit inhibition at 10 µM
1. NC(=O)c1n[nH]c2ccc(NS(=O)(=O)c3cccc(F)c3)cc12
2. CCCCOc1ccc(S(=O)(=O)Nc2ccc3[nH]nc(-c4ccccc4)c3c2)cc1

80
14

* * *

Where a name gives a salt, the structure may show the parent alone.
Quantity kind: melting point (°C)
Numbers only, in °C.

Sample answers from the record:
CS(=O)(=O)c1ccccc1S(=O)(=O)Nc1ccc2[nH]nc(-c3ccncc3)c2c1 | 265
CS(=O)(=O)c1ccccc1S(=O)(=O)Nc1ccc2[nH]nc(-c3ccc4ccccc4c3)c2c1 | 221
O=S(=O)(Oc1ccc2[nH]ncc2c1)c1cccc(F)c1 (as salt: benzenesulfonate) [Example 17, 1H-Indazol-5-yl 3-fluorobenzenesulfonate] | 104
CS(=O)(=O)c1ccccc1S(=O)(=O)Nc1ccc2[nH]ncc2c1 | 245
CS(=O)(=O)c1ccccc1S(=O)(=O)Nc1ccc2[nH]nc(N)c2c1 | 246

// for each compound in input: emit melting point
1. COC(=O)c1cccc(-c2n[nH]c3ccc(NS(=O)(=O)c4ccccc4S(C)(=O)=O)cc23)c1
2. Nc1n[nH]c2ccc(NS(=O)(=O)c3cc(F)cc(F)c3)cc12
3. Cc1cc2[nH]nc(-c3ccccc3)c2cc1NS(=O)(=O)c1ccccc1S(C)(=O)=O
4. Cc1n[nH]c2ccc(NS(=O)(=O)c3cccc(F)c3)cc12
5. CS(=O)(=O)c1ccccc1S(=O)(=O)Nc1ccc2[nH]nc(/C=C/c3ccc(Cl)cc3)c2c1
6. Nc1n[nH]c2ccc(NS(=O)(=O)c3c(F)cccc3F)cc12
7. O=C(Nc1n[nH]c2ccc(NS(=O)(=O)c3cccc(F)c3)cc12)c1ccccc1

202
232
239
120
247
241
225

// for each compound in input: emit melting point
1. CS(=O)(=O)c1ccc(F)cc1S(=O)(=O)Nc1ccc2[nH]nc(-c3ccccc3)c2c1
2. CS(=O)(=O)c1ccccc1S(=O)(=O)Nc1ccc2[nH]nc(-c3ccco3)c2c1
3. COC(=O)c1ccc(-c2n[nH]c3ccc(NS(=O)(=O)c4ccccc4S(C)(=O)=O)cc23)cc1
4. Nc1n[nH]c2ccc(NS(=O)(=O)c3cccc(F)c3)cc12
5. O=S(=O)(Nc1ccc2[nH]nc(-c3ccccc3)c2c1)c1cccc(F)c1
6. CS(=O)(=O)c1ccccc1S(=O)(=O)Nc1ccc2[nH]nc(CCc3ccc(Cl)cc3)c2c1
7. CS(=O)(=O)c1ccccc1S(=O)(=O)Nc1ccc2[nH]nc(-c3ccc(Cl)cc3)c2c1

224
248
244
216
200
215
242

// for each compound in input: emit melting point
1. CNc1n[nH]c2ccc(NS(=O)(=O)c3ccccc3S(C)(=O)=O)cc12
2. CC(=O)Nc1n[nH]c2ccc(NS(=O)(=O)c3cccc(F)c3)cc12 (hydrate or solvate)
3. COc1ccc(-c2n[nH]c3ccc(NS(=O)(=O)c4ccccc4)cc23)cc1
4. CC(=O)Nc1ccccc1-c1n[nH]c2ccc(NS(=O)(=O)c3ccccc3S(C)(=O)=O)cc12

1: 220; 2: 246; 3: 172; 4: 245
